target: human ACC2 (Homo sapiens (Human), UniProt O00763); experiment: ACC2 assay (spectrophotometric 384 well assay, NADH-linked coupled lactate dehydrogenase/pyruvate kinase); assay type: biochemical; settings: hACC2 construct lacking 128 N-terminal amino acids; 25° C., 340 nm, 15 minutes
Sequence (O00763 129-2458): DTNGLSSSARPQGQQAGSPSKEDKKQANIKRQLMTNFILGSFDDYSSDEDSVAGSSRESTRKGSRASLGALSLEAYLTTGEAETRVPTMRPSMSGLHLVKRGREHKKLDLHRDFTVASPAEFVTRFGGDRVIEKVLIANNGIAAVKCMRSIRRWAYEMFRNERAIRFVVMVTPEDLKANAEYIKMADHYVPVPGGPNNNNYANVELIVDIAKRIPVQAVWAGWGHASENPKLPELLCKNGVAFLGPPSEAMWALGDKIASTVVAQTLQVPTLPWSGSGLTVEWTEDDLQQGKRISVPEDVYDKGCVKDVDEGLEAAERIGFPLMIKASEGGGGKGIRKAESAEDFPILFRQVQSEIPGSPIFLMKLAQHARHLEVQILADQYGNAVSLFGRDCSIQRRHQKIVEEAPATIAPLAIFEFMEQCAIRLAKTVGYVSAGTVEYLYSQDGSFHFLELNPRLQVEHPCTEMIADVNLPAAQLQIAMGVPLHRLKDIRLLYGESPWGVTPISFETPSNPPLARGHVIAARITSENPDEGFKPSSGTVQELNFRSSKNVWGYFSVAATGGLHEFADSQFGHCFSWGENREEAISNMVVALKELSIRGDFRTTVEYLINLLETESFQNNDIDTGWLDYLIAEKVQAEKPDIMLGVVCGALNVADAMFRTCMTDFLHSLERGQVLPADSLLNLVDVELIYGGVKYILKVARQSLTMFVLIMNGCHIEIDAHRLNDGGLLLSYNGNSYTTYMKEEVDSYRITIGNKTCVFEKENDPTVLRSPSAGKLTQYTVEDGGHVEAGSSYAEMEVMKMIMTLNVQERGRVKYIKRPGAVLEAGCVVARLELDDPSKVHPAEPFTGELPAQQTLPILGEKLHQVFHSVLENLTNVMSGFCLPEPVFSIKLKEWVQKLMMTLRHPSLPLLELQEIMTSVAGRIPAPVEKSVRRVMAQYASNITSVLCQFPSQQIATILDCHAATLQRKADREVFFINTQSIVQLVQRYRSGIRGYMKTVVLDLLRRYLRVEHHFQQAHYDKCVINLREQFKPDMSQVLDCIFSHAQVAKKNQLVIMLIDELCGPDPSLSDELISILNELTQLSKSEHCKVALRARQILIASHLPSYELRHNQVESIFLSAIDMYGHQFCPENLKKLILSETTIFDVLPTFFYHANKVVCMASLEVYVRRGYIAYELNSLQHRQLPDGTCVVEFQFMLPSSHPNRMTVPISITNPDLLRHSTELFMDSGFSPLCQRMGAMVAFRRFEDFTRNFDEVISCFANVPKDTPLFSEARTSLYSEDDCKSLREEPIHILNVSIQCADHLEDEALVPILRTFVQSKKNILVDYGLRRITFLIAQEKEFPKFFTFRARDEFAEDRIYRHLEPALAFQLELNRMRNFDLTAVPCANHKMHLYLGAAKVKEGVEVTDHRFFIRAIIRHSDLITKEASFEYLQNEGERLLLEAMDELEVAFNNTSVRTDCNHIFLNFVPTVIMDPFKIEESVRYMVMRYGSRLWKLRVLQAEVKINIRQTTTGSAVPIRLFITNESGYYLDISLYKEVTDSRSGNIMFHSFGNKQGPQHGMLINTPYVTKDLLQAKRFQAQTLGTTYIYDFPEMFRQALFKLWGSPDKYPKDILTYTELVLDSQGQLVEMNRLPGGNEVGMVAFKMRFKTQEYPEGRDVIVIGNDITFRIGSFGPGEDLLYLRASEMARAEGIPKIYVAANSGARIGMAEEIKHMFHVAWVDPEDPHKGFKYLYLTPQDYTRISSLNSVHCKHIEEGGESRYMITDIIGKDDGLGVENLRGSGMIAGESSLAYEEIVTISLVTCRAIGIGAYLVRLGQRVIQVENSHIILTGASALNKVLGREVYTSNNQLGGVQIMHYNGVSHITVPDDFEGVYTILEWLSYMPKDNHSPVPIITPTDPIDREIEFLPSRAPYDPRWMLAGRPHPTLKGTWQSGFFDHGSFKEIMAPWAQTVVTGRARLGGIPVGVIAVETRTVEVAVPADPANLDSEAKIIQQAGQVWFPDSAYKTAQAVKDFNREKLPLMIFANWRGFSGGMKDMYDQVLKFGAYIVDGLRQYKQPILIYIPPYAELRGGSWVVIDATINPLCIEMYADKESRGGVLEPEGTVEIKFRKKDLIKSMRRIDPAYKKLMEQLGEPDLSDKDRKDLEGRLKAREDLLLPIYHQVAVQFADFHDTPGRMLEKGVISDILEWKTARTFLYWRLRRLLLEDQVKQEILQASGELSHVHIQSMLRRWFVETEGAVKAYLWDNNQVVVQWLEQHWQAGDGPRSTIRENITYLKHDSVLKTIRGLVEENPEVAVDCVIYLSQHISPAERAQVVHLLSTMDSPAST
Classification field. Basis: IC50. Definitions: low end (below 200 nM), middle (200 nM to below 700 nM), high end (700 nM or more)

Band assignment needed for CC(=O)N[C@@H](C)c1ccc(OC2CN(c3ccc(-c4ccccc4)cn3)C2)cc1 please.
middle

Band assignment needed for CCOc1ccc(N2CC(Oc3ccc([C@H](C)NC(=O)CCCNC(C)=O)cc3)C2)cc1 please.
high end

Band assignment needed for CC(=O)N[C@@H](C)c1ccc(OC2CN(c3ncc(C(F)(F)F)cc3F)C2)cc1 please.
low end

Band assignment needed for CC(=O)N[C@@H](C)c1ccc(OC2CN(c3nc4ccccc4s3)C2)cc1 please.
middle

Band assignment needed for CCCOc1ccc(N2CC(Oc3ccc([C@H](C)NC(=O)N(C)C)cc3)C2)c(OC)c1 please.
middle

Band assignment needed for CC(=O)NC(C)c1ccc(OC2CN(c3ccc(OC4CCCC4)cc3)C2)cc1 (centres unmarked) please.
low end

Band assignment needed for CC(=O)N[C@@H](C)c1ccc(OC2CN(c3nccc4ccccc34)C2)cc1 please.
high end

Band assignment needed for CCCOc1cccc(N2CC(Oc3ccc([C@H](C)NC(C)=O)cc3)C2)c1 please.
high end

Band assignment needed for CCCC(=O)N[C@@H](C)c1ccc(OC2CN(c3ccc(OCC)cc3)C2)cc1 please.
high end

Band assignment needed for C[C@H](NC(=O)C1CC1)c1ccc(OC2CN(c3ccc(OC4CC4)cc3)C2)cc1 please.
middle

Band assignment needed for COc1ccc(N2CC(Oc3ccc([C@H](C)NC(C)=O)cc3)C2)c(C#N)c1 please.
high end

Band assignment needed for CC(=O)NC(C)c1ccc(OC2CN(c3ncc(C4CC4)cn3)C2)cc1 (centres unmarked) please.
low end

Band assignment needed for CC(=O)N[C@@H](C)c1ccc(OC2CN(c3ncc(Cl)cn3)C2)cc1 please.
middle

Band assignment needed for C[C@H](NC(=O)N(C)C)c1ccc(OC2CN(c3ncc(Br)cn3)C2)cc1 please.
middle

Band assignment needed for C[C@H](NC(=O)N(C)C)c1ccc(OC2CN(c3ccc4c(c3)OCCO4)C2)cc1 please.
middle

* * *

molecular target: human ACC2 (Homo sapiens (Human)); test: ACC2 assay (spectrophotometric 384 well assay, NADH-linked coupled lactate dehydrogenase/pyruvate kinase); format: biochemical; settings: hACC2 construct lacking 128 N-terminal amino acids; 25° C., 340 nm, 15 minutes
Metric: IC50 (nM)
Respond with the bare value in nM.

In plain terms, CC(=O)NC(C)c1ccc(OC2CN(c3cnc(OC4CCC4)nc3)C2)cc1 (stereo not shown) has a documented IC50 of 670

In plain terms, COc1cc(OC2CCC2)ccc1N1CC(Oc2ccc([C@H](C)NC(C)=O)cc2)C1 has a documented IC50 of 490

In plain terms, CC(=O)N[C@@H](C)c1ccc(OC2CN(c3ccc(OC4CC4)cc3C)C2)cc1 has a documented IC50 of 250

In plain terms, CCOc1ccc(N2CC(Oc3ccc(C(C)NC(C)=O)cc3)C2)cc1 (stereo not shown) has a documented IC50 of 200

* * *

target: UniProt:O00763; test: ACC2 assay (spectrophotometric 384 well assay, NADH-linked coupled lactate dehydrogenase/pyruvate kinase); type: biochemical; details: hACC2 construct lacking 128 N-terminal amino acids; 25° C., 340 nm, 15 minutes
Metric: pIC50
Scale: negative log10 of molar concentration, which is what pIC50 denotes.

In plain terms, CC(=O)N[C@@H](C)c1ccc(OC2CN(c3ccc(C(F)(F)F)cc3C#N)C2)cc1 [Example 1.23] has a documented pIC50 of 5.55

In plain terms, CCCOc1cc(N2CC(Oc3ccc([C@H](C)NC(C)=O)cc3)C2)ncn1 [Example 11.1] has a documented pIC50 of 5.22

In plain terms, COc1cc(OCC2CC2(F)F)ccc1N1CC(Oc2ccc([C@H](C)NC(C)=O)cc2)C1 (some centres unmarked) [Example 1.61] has a documented pIC50 of 5.60

In plain terms, CCOc1ccc(N2CC(Oc3ccc([C@H](C)NC(=O)c4cnco4)cc3)C2)cc1 [Example 8.33] has a documented pIC50 of 6.72

In plain terms, CC(=O)N[C@@H](C)c1ccc(OC2CN(c3nccc(C(F)(F)F)c3F)C2)cc1 [Example 4.10] has a documented pIC50 of 6.43

In plain terms, CCOc1ccc(N2CC(Oc3ccc([C@H](C)NC(=O)C4CC(C)C4)cc3)C2)cc1 (some centres unmarked) [Example 8.27] has a documented pIC50 of 6.12

In plain terms, CCOc1ccc(N2CC(Oc3ccc([C@H](C)NC(=O)CO)cc3)C2)cc1 [Example 8.17] has a documented pIC50 of 5.55

In plain terms, CC(=O)N[C@@H](C)c1ccc(OC2CN(c3cc(C(F)(F)F)ccn3)C2)cc1 [Example 4.20] has a documented pIC50 of 6.11

* * *

molecular target: human ACC2 (Homo sapiens (Human), UniProt O00763); test: ACC2 assay (spectrophotometric 384 well assay, NADH-linked coupled lactate dehydrogenase/pyruvate kinase); type: biochemical; details: hACC2 construct lacking 128 N-terminal amino acids; 25° C., 340 nm, 15 minutes
Mark condition met for IC50 under 500 nM, condition not met if at or over.

Determine whether this compound shows IC50 lower than 500 nM (ties excluded): CC(=O)N[C@@H](C)c1ccc(OC2CN(c3cc(OCC4CC4)ncn3)C2)cc1
condition not met

Determine whether this compound shows IC50 lower than 500 nM (ties excluded): CC(=O)N[C@@H](C)c1ccc(OC2CN(c3cc(N(C)CC4CC4)ncn3)C2)cc1
condition not met

Determine whether this compound shows IC50 lower than 500 nM (ties excluded): CCCOc1ccc(N2CC(Oc3ccc([C@H](C)NC(C)=O)cc3)C2)c(C#N)c1
condition not met

Determine whether this compound shows IC50 lower than 500 nM (ties excluded): CCOc1ccc(N2CC(Oc3ccc([C@H](C)NC(=O)OC)cc3)C2)cc1
condition met

Determine whether this compound shows IC50 lower than 500 nM (ties excluded): CCOc1ccc(N2CC(Oc3ccc([C@H](C)NC(=O)CN(C)C)cc3)C2)cc1
condition not met

Determine whether this compound shows IC50 lower than 500 nM (ties excluded): CC(=O)N[C@@H](C)c1ccc(OC2CN(c3nc(C(F)(F)F)ccc3F)C2)cc1
condition not met

Determine whether this compound shows IC50 lower than 500 nM (ties excluded): C[C@H](NC(=O)C1CC1)c1ccc(OC2CN(c3ncc(C4CC4)cn3)C2)cc1
condition met

Determine whether this compound shows IC50 lower than 500 nM (ties excluded): CC(=O)N[C@@H](C)c1ccc(OC2CN(c3ccc4c(c3)OCC(C)(C)CO4)C2)cc1
condition met

Determine whether this compound shows IC50 lower than 500 nM (ties excluded): CC(=O)N[C@@H](C)c1ccc(OC2CN(c3ccnc(C(F)(F)F)c3)C2)cc1
condition not met

Determine whether this compound shows IC50 lower than 500 nM (ties excluded): C[C@H](NC(=O)C1CC1)c1ccc(OC2CN(c3ccc4c(c3)OCCO4)C2)cc1
condition not met

Determine whether this compound shows IC50 lower than 500 nM (ties excluded): C[C@H](NC(=O)N(C)C)c1ccc(OC2CN(c3ncc(C4CC4)cn3)C2)cc1
condition met

Determine whether this compound shows IC50 lower than 500 nM (ties excluded): CCCOc1ccc(N2CC(Oc3ccc([C@H](C)NC(=O)C4CC4)cc3)C2)c(OC)c1
condition not met

Determine whether this compound shows IC50 lower than 500 nM (ties excluded): CCOc1ccc(N2CC(Oc3ccc([C@H](C)NC(=O)c4cccc(NC(C)=O)c4)cc3)C2)cc1
condition not met

Determine whether this compound shows IC50 lower than 500 nM (ties excluded): CCOc1ccc(N2CC(Oc3ccc([C@H](C)NC(=O)CC)cc3)C2)cc1
condition met

Determine whether this compound shows IC50 lower than 500 nM (ties excluded): CCNc1ncc(N2CC(Oc3ccc(C(C)NC(C)=O)cc3)C2)cn1 (stereo not drawn)
condition not met

Determine whether this compound shows IC50 lower than 500 nM (ties excluded): CCOc1ccc(N2CC(Oc3ccc([C@H](C)NC(=O)c4ccnc(NC(C)=O)c4)cc3)C2)cc1
condition not met

Determine whether this compound shows IC50 lower than 500 nM (ties excluded): CCCOc1ccc(N2CC(Oc3ccc([C@H](C)NC(=O)C4CC4)cc3)C2)cc1
condition met

Determine whether this compound shows IC50 lower than 500 nM (ties excluded): CC(=O)N[C@@H](C)c1ccc(OC2CN(c3nc4ccccc4o3)C2)cc1
condition met

Determine whether this compound shows IC50 lower than 500 nM (ties excluded): CCCOc1ccnc(N2CC(Oc3ccc([C@H](C)NC(C)=O)cc3)C2)c1
condition not met

Determine whether this compound shows IC50 lower than 500 nM (ties excluded): CC(=O)NC(C)c1ccc(OC2CN(c3ccc(OC4CC4)cc3)C2)cc1 (stereo not drawn)
condition not met

Determine whether this compound shows IC50 lower than 500 nM (ties excluded): CC(=O)N[C@@H](C)c1ccc(OC2CN(c3ncc(Br)cn3)C2)cc1
condition met

Determine whether this compound shows IC50 lower than 500 nM (ties excluded): CCOc1ccc(N2CC(Oc3ccc([C@H](C)NC(=O)C(C)C)cc3)C2)cc1
condition not met

Determine whether this compound shows IC50 lower than 500 nM (ties excluded): CC(=O)N[C@@H](C)c1ccc(OC2CN(c3cc(Br)ccn3)C2)cc1
condition not met

Determine whether this compound shows IC50 lower than 500 nM (ties excluded): CCOc1cc(N2CC(Oc3ccc([C@H](C)NC(C)=O)cc3)C2)c(F)cn1
condition not met

Determine whether this compound shows IC50 lower than 500 nM (ties excluded): CC(=O)N[C@@H](C)c1ccc(OC2CN(c3ccc4c(c3)OCCCC4(C)C)C2)cc1
condition met

Determine whether this compound shows IC50 lower than 500 nM (ties excluded): CC(=O)NC(C)c1ccc(OC2CN(c3ccc(C(C)(C)C)cc3)C2)cc1 (stereo not drawn)
condition met

Determine whether this compound shows IC50 lower than 500 nM (ties excluded): CC(=O)N[C@@H](C)c1ccc(OC2CN(c3ncc(OC(C)C)cn3)C2)cc1
condition not met

Determine whether this compound shows IC50 lower than 500 nM (ties excluded): CCOc1ccc(N2CC(Oc3ccc([C@H](C)NC(=O)CC#N)cc3)C2)cc1
condition met

Determine whether this compound shows IC50 lower than 500 nM (ties excluded): CC(=O)N[C@@H](C)c1ccc(OC2CN(c3ccc4cc(Cl)ccc4n3)C2)cc1
condition not met

Determine whether this compound shows IC50 lower than 500 nM (ties excluded): CC(=O)N[C@@H](C)c1ccc(OC2CN(c3cccc(OCC(C)C)c3)C2)cc1
condition not met

Determine whether this compound shows IC50 lower than 500 nM (ties excluded): CCOc1cccc(N2CC(Oc3ccc([C@H](C)NC(C)=O)cc3)C2)c1
condition not met

Determine whether this compound shows IC50 lower than 500 nM (ties excluded): CCC(C)Oc1ccc(N2CC(Oc3ccc([C@H](C)NC(C)=O)cc3)C2)c(OC)c1 (stereo partly drawn)
condition not met

Determine whether this compound shows IC50 lower than 500 nM (ties excluded): CCOc1ccc(N2CC(Oc3ccc([C@H](C)NC(C)=O)cc3)C2)cc1
condition met
